# credit: patent US5840918A

Measured IC50, listed per entry for reference.
# Target Or Test System: FTase (Bos taurus, UniProt P29702+P49355)
# Construct: bovine brain by inference from the cited Moores et al. 1991
# Protocol Notes: Inhibition of FTase-mediated prenylation (in vitro prenylation assay)
# Conditions Used: Table 1; partially purified FTase, 3 μM recombinant H-ras, 440 nM [3H]FPP, 15 min 37° C
Express your answer in nM, writing the number without its unit.

Example entries begin here.
Input: Which IC50 is reported for this compound? COC(=O)[C@H](Cc1cccs1)NC(=O)c1cc(C/C=C/C(N)CS)ccc1-c1ccsc1 (some centres unmarked) [PM092]
Output: 215

Input: Thanks! And CC(C)C(/C=C/[C@@H](/C=C/C(N)CS)C(C)C)C(=O)N[C@@H](CCS(C)(=O)=O)C(=O)O (some centres unmarked) [PD172] ?
Output: 7

Input: Field entry: CSCC[C@H](NC(=O)C(/C=C/[C@@H](/C=C/[C@@H](N)CS)C(C)C)C(C)C)C(=O)NC(C)(C)C (some centres unmarked) [PD222]
Output: 710

Input: Similarly, CSCCC(NC(=O)C(/C=C\C(/C=C/C(N)CS)C(C)C)Cc1ccccc1)C(=O)O (centres unmarked) [PD311] ?
Output: 69

Input: # iterate: CSCC[C@H](NC(=O)c1cccc(C/C=C/C(N)CS)c1)C(=O)O (some centres unmarked) [PM102]
Output: 290

Input: Similarly, COC(=O)[C@H](CCS(C)(=O)=O)NC(=O)C(/C=C/[C@@H](/C=C/C(N)CS)C(C)C)C(C)C (some centres unmarked) [PD132] ?
Output: 245

Next:
Input: Tell me the measured IC50 of CC(C)[C@@H](/C=C\C(Cc1ccccc1)C(=O)NC(CCC(N)=O)C(=O)O)/C=C/C(N)CS (some centres unmarked) [PD301] , please.
Output: 2

Input: Request: NC(/C=C/Cc1ccc(-c2ccccc2)c(C(=O)N[C@@H](CO)C(=O)O)c1)CS (some centres unmarked) [PM091]
Output: 2

---

Entries annotated with measured IC50
# Target Or Test System: FTase (Bos taurus, UniProt P29702+P49355)
# Construct: bovine brain by inference from the cited Moores et al. 1991
# Protocol Notes: Inhibition of FTase-mediated prenylation (in vitro prenylation assay)
# Format: biochemical
# Conditions Used: Table 1; partially purified FTase, 3 μM recombinant H-ras, 440 nM [3H]FPP, 15 min 37° C
Please reply with the bare figure in µM and do not write the unit itself.

Would you please look over these solved cases?
Input: I have this compound here, COC(=O)[C@H](CCS(C)(=O)=O)NC(=O)c1cc(C/C=C/C(N)CS)ccc1-c1ccsc1 (stereo partly shown) [PM202] , and I need its recorded IC50.
Output: 0.016

Input: Again, but for COC(=O)[C@H](CCSC)NC(=O)C(Cc1ccccc1)SC[C@@H](/C=C/C(N)CS)C(C)C (stereo partly shown) [PT011]
Output: 0.043

Input: Repeat for the following compound: CSCC[C@H](NC(=O)C(/C=C/[C@@H](/C=C/C(N)CS)C(C)C)C(C)C)C(=O)N(C)Cc1ccccn1 (stereo partly shown) [PD072]
Output: 0.042

Input: Again, but for CSCCC(NC(=O)C(Cc1ccccc1)OCC(C=CC(N)CSSCC(N)C=CC(COC(Cc1ccccc1)C(=O)NC(CCSC)C(=O)O)C(C)C)C(C)C)C(=O)O (stereo not shown) [PE041]
Output: 0.027

Input: Another: COC(=O)[C@H](CCS(C)(=O)=O)NC(=O)C(Cc1cccs1)NC[C@@H](/C=C/C(N)CS)C(C)C (stereo partly shown) [PA011]
Output: 0.14

Shifting focus to the compound that follows.
Input: Given the compound CSCC[C@H](NC(=O)C(/C=C/C(/C=C/CCS)C(C)C)Cc1ccccc1)C(=O)O (single isomer, unassigned) [PD052] , what is its reported IC50?
Output: 2.81

---

# Target Or Test System: FTase (Bos taurus, UniProt P29702+P49355)
# Construct: bovine brain by inference from the cited Moores et al. 1991
# Protocol Notes: Inhibition of FTase-mediated prenylation (in vitro prenylation assay)
# Conditions Used: Table 1; partially purified FTase, 3 μM recombinant H-ras, 440 nM [3H]FPP, 15 min 37° C
Property Label: IC50 (µM)
// return numeric value only (unit: µM, not printed)

Input: API: value(readout=IC50, system=FTase (Bos taurus, UniProt P29702+P49355)) for record CSCC[C@H](NC(=O)c1cc(C/C=C/C(N)CS)ccc1C)C(=O)O (stereo partly shown)
Output: 0.0012

Input: Same thing, different compound: COC(=O)[C@H](CCS(C)(=O)=O)NC(=O)C(Cc1ccccc1)OC[C@@H](/C=C/C(N)CS)C(C)C (stereo partly shown)
Output: 0.06

Input: What would you report for CSCCC(NC(=O)C(/C=C\[C@@H](/C=C/C1CSC(C)(C)N1)C(C)C)Cc1ccccc1)C(=O)O (stereo partly shown) ?
Output: 0.025

For the next question, use this compound.
Input: Lab note: need IC50 for CSCCC(NC(=O)c1cc(CC=CC(N)CSSCC(N)C=CCc2ccc(-c3ccccc3)c(C(=O)NC(CCSC)C(=O)O)c2)ccc1-c1ccccc1)C(=O)O (stereo not shown) on FTase (Bos taurus, UniProt P29702+P49355), anyone have it?
Output: 0.0001

---

# Target Or Test System: GGTase
# Protocol Notes: Inhibition of GGTase-mediated prenylation (in vitro prenylation assay)
# Assay type: biochemical
# Conditions Used: Table 1; partially purified GGTase, 5 μM recombinant H-ras (61L, CAIL), 1 μM [3H] geranylgeranyl diphosphate
// assign MET if IC50 falls strictly below 2000 nM, else NOT MET (ties count as NOT MET)

Solved cases below.
Input: Given the entry COc1ccc(C/C=C/C(N)CS)cc1C(=O)N[C@@H](CCSC)C(=O)O (some centres unmarked) , would its reported IC50 be below 2000 nM?
Output: NOT MET

Input: Also COC(=O)[C@H](CCS(C)(=O)=O)NC(=O)c1cc(CCC[C@@H](N)CS)ccc1-c1ccsc1 ?
Output: NOT MET

---
Input: Determine if CSCC[C@H](NC(=O)C(/C=C/[C@@H](/C=C/C(N)CS)C(C)(C)C)Cc1ccccc1)C(=O)O (some centres unmarked) [PD012] shows IC50 strictly lower than 2000 nM.
Output: MET

Input: // repeat for CSCCC(NC(=O)C(/C=C\C(/C=C/C(N)CS)C(C)C)Cc1ccccc1)C(=O)O (centres unmarked) and report
Output: MET

Input: Do the same for CSCC[C@H](NC(=O)c1cc(C/C=C/C(N)CS)ccc1-c1ccsc1)C(=O)O (some centres unmarked) please
Output: MET

Input: Item: COC(=O)[C@H](CCSC)NC(=O)C(Cc1cccs1)N(C)C[C@@H](/C=C/C(N)CS)C(C)C (some centres unmarked)
Output: MET

Input: Again, but for CSCC[C@H](NC(=O)C(/C=C/[C@@H](/C=C/C(N)CS)C(C)(C)C)C(C)C)C(=O)O (some centres unmarked) [PD142]
Output: NOT MET

Input: Record: CSCC[C@H](NC(=O)c1cc(C/C=C/[C@@H](N)CS)ccc1-c1cc(C(F)(F)F)cc(C(F)(F)F)c1)C(=O)O
Output: MET

---

# Target Or Test System: FTase (Bos taurus, UniProt P29702+P49355)
# Construct: bovine brain by inference from the cited Moores et al. 1991
# Protocol Notes: Inhibition of FTase-mediated prenylation (in vitro prenylation assay)
# Format: biochemical
# Conditions Used: Table 1; partially purified FTase, 3 μM recombinant H-ras, 440 nM [3H]FPP, 15 min 37° C
pIC50: −log10 of the molar value.
Use 8 as the dividing line for pIC50, with the line itself on the True side and lower values as False.

Input: Is the recorded value of pIC50 equal to or greater than 8 for this compound? CC(C)C[C@H](NC(=O)c1cc(C/C=C/C(N)CS)ccc1-c1ccccc1)C(=O)O (stereo partly shown)
Output: False

New cases:
Input: Check the entry COC(=O)[C@H](CCSC)NC(=O)C(NC[C@@H](/C=C/C(N)CS)C(C)C)C(C)C (stereo partly shown) : does pIC50 equal or exceed 8?
Output: False

Input: Now try CC[C@H](C)[C@H](NC[C@@H](/C=C/C(N)CS)C(C)C)C(=O)N[C@@H](CCSC)C(=O)OC (stereo partly shown) .
Output: False

Input: // same read-out, input: CCOC(=O)C(CCSC)NC(=O)C(C=CC(C=CC(N)CS)Cc1ccccc1)C(C)C (stereo not shown)
Output: False

Input: Quick one: C=Cc1ccc(C/C=C/C(N)CS)cc1C(=O)N[C@@H](CCSC)C(=O)O (stereo partly shown)
Output: True

---

# Tested on: Sw620
# Protocol Notes: Inhibition of anchorage-independent tumor cell growth, Sw620
# Assay type: cell-based
# Conditions Used: Homo sapiens, SW-620, 336 h; Sw620, 14 days, soft agar
Property Label: pIC50
Bear in mind: pIC50 is minus log10 of a mol/L concentration; give just that figure.

Input: May I ask what pIC50 has been recorded for CSCC[C@H](NC(=O)C(/C=C\[C@@H](/C=C/[C@@H](N)CS)C(C)C)Cc1ccccc1)C(=O)O (stereo partly shown) ?
Output: 4.66
